- tested_on: UniProt P30518
- Sequence (P30518 whole entry): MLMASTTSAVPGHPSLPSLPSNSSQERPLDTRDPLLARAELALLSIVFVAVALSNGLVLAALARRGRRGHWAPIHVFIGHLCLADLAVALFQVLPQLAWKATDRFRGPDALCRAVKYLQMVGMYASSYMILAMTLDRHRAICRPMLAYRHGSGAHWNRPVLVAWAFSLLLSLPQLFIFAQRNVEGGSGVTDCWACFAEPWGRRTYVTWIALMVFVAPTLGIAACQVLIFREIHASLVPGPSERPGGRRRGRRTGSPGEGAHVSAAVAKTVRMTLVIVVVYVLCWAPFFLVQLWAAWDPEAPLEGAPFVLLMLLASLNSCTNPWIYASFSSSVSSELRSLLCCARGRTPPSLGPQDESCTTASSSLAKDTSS
- measurement_description: Cellular in vitro test for determination of the vasopressin receptor activity (aequorin luminescence, CHO cells), human V2
- condition: cell line transfected with the human V2 receptor, antagonism of [Arg8]-vasopressin, read-out: IC50 hV2
Each entry falls in a class defined on IC50; the bands are LOW = under 7 nM, MID = from 7 nM up to 200 nM, HIGH = 200 nM and over

Exercise: # classify by IC50 band: O=C(Cn1nc(-c2ccc(Cl)cc2)n(CC(O)C(F)(F)F)c1=O)NC(C(=O)N1CCOCC1)c1cccc(C(F)(F)F)c1 (stereo not drawn)
Key: MID

Exercise: Classify this compound: `O=C(Cn1nc(-c2ccc(Cl)cc2)n(Cc2ccc(F)cc2)c1=O)NCc1cccc(C(F)(F)F)c1`
Key: LOW

Exercise: Which bin, given its IC50, does `COc1cc(Cl)ccc1-c1nn(CC(=O)NC(C)(C)c2cccc(C(F)(F)F)c2)c(=O)n1Cc1ccccc1F` occupy?
Key: LOW

Exercise: Exam item: assign `O=C(Cn1nc(-c2ccc(Cl)cc2)n(Cc2ccccc2F)c1=O)NCc1c(C(F)(F)F)cccc1C(F)(F)F` to the correct category.
Key: HIGH

Exercise: Sort into band: `CCOC(=O)Cn1c(-c2ccc(Cl)cc2)nn(CC(=O)NCCc2ccccc2C(F)(F)F)c1=O`
Key: MID

Exercise: In plain terms, what class is CCn1c(-c2ccc(Cl)cc2)cn(CC(=O)NC(C)c2cccc(C(F)(F)F)c2)c1=O (stereo not drawn) ?
Key: HIGH

Exercise: Note: place this compound into its band. Item: `CC(C)(NC(=O)Cn1nc(-c2ccc(Cl)cc2)n(CC(=O)O)c1=O)c1cccc(C(F)(F)F)c1`
Key: MID

Exercise: Sort O=C(Cn1nc(-c2ccc(Cl)cc2)n(CC(O)C(F)(F)F)c1=O)N[C@@H]1C[C@@H]1c1cccc(C(F)(F)F)c1 (mixture of isomers) into one of the categories.
Key: LOW

Exercise: Determine which band this compound sits in: `CN(C)C(=O)c1cccc(Cn2c(-c3ccc(Cl)cc3)nn(CC(=O)NC(C)(C)c3cccc(C(F)(F)F)c3)c2=O)c1`
Key: MID

Exercise: Band of CCC(O)Cn1c(-c2ccc(Cl)cc2)nn(CC(=O)NC(C)(C)c2cccc(C(F)(F)F)c2)c1=O (single isomer, unassigned) ?
Key: LOW

Exercise: Could you place `O=C(Cn1nc(-c2ccc(Cl)cc2)n(CC2CCCCC2)c1=O)NCc1cccc(C(F)(F)F)c1` in its proper category? Many thanks.
Key: MID

Exercise: Which IC50 band matches COCCn1c(-c2ccc(Cl)cc2)nn(CC(=O)NC(C(=O)N(C)C)c2cccc(C(F)(F)F)c2)c1=O (stereo not drawn) ?
Key: HIGH

Exercise: Form: Item = `CC(C)(CNC(=O)Cn1nc(-c2ccc(Cl)cc2)n(C2CC2)c1=O)c1ccccc1C(F)(F)F` ; Class = ?
Key: HIGH

Exercise: In plain terms, what class is `O=C(Cn1nc(-c2ccccc2O)n(Cc2cccc(F)c2)c1=O)NCCc1ccccc1C(F)(F)F` ?
Key: MID

Exercise: Please classify: `O=C(Cn1nc(-c2ccc(Cl)cc2)n(C2CC2)c1=O)NCC1(c2ccccc2F)CCCC1`
Key: HIGH

Exercise: Classify this compound: `CC(C)Cn1c(-c2ccc(Cl)s2)nn(CC(=O)NCc2ccccc2C(F)(F)F)c1=O`
Key: HIGH

Exercise: Sort into band: `CC(C)(NC(=O)Cn1nc(-c2ccc(Cl)cc2)n(CC(=O)C(F)(F)F)c1=O)c1cccc(C(F)(F)F)c1`
Key: LOW
